target: BACE1 ECD (as used in the enzyme activity assay) (UniProt P56817 22-457, limits assumed); assay: cell-based or functional assay
Sequence (P56817 22-457 limits assumed): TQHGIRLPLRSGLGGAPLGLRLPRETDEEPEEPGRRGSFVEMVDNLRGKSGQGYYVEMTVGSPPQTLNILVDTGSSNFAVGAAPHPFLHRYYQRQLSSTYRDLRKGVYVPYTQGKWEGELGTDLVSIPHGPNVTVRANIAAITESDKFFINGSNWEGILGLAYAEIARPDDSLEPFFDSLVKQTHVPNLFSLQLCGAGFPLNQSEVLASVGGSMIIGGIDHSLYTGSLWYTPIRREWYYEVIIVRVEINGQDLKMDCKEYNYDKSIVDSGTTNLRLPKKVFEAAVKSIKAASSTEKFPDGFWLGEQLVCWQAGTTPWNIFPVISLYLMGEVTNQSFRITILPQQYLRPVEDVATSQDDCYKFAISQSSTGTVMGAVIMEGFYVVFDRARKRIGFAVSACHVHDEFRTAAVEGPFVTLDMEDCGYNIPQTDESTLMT
Catalogue of binders with associated EC50, HTRF long substrate assay
Write the value in nM as a bare number.

I am curious: what EC50, HTRF long substrate assay value has been reported for 5876 (antibody, V domains shown) VH: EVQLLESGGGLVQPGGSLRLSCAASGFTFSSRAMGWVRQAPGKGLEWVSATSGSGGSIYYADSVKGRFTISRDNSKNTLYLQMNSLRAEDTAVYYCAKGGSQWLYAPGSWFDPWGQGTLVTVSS VL: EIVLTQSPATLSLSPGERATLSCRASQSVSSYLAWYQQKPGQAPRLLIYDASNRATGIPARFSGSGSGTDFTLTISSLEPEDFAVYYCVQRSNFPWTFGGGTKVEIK ?
1.67

I am curious: what EC50, HTRF long substrate assay value has been reported for 5874 (antibody, V domains shown) VH: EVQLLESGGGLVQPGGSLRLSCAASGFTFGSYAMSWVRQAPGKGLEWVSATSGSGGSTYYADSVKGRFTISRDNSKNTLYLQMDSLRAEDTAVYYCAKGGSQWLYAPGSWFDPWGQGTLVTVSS VL: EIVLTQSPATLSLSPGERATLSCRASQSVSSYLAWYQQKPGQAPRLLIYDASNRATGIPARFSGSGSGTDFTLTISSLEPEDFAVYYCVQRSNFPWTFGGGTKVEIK ?
3.97

I am curious: what EC50, HTRF long substrate assay value has been reported for 5878 (antibody, V domains shown) VH: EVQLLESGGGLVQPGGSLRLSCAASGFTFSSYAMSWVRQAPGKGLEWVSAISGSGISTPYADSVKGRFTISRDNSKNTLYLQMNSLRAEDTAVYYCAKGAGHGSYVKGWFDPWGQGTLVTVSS VL: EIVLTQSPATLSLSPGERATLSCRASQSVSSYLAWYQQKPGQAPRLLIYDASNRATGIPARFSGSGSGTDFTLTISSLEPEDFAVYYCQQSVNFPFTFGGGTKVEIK ?
164

I am curious: what EC50, HTRF long substrate assay value has been reported for 5536 (antibody, V domains shown) VH: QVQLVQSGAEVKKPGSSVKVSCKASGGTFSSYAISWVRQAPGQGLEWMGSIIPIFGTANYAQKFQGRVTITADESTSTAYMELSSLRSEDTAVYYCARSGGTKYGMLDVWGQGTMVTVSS VL: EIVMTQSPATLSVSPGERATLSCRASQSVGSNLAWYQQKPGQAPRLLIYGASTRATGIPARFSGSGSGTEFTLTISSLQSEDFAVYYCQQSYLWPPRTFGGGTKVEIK ?
0.578

I am curious: what EC50, HTRF long substrate assay value has been reported for 5571 (antibody, V domains shown) VH: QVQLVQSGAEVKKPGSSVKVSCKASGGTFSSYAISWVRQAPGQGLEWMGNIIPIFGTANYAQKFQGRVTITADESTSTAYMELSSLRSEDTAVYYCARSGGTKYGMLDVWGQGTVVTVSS VL: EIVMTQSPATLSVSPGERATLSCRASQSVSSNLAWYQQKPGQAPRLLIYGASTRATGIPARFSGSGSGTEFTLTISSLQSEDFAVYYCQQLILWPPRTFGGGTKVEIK ?
5.06
